The entries below are paired with their reported exon inclusion enrichment index.
B1: mRNA-splicing (parent)
chain: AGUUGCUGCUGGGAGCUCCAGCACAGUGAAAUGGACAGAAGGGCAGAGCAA

Variants of: B1
Assay: exon inclusion enrichment index; higher = more inclusion; WT1 exon 5 minigene, HEK293
readout_kind: exon inclusion enrichment index

mutation_key: G5U G8U C9U A14C G15C
readout_kind: exon inclusion enrichment index
recorded_measurement: 0.0167
//
mutation_key: U3G U4C C6A U7A C9A U10A
readout_kind: exon inclusion enrichment index
recorded_measurement: 1.04
//
mutation_key: G5A G8U C9U
readout_kind: exon inclusion enrichment index
recorded_measurement: 0.166
//
mutation_key: C6A U7C C9A U10C A14C G15U
readout_kind: exon inclusion enrichment index
recorded_measurement: 2.32
//
mutation_key: C6A U7A C9A U10A A30U A31G
readout_kind: exon inclusion enrichment index
recorded_measurement: 0.653
//
mutation_key: A37C G38A
readout_kind: exon inclusion enrichment index
recorded_measurement: 0.152
//
mutation_key: G2C U3A G5U G8U C9U
readout_kind: exon inclusion enrichment index
recorded_measurement: 0.19
//
mutation_key: G5C C6A U7C G8A U10A G11A G12A
readout_kind: exon inclusion enrichment index
recorded_measurement: 0.202
//
mutation_key: G5U G8U C9U A25U G26C
readout_kind: exon inclusion enrichment index
recorded_measurement: 0.219
//
mutation_key: G5U G8U C9U G11A G12A
readout_kind: exon inclusion enrichment index
recorded_measurement: 0.00894
//
mutation_key: G5A U7C G8A U10C G12C G13C
readout_kind: exon inclusion enrichment index
recorded_measurement: 0.397
